# experimentalTarget: T1, HMGB1 domain A C22A (UniProt P09429 9-79, C23A)
# T1 sequence: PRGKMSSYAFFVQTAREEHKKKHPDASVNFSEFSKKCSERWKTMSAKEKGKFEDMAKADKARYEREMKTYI
# testDetails: EMSA
pKd: −log10 of the molar value.

binder	pKd
25-bp cisplatin-modified TGGA probe (dsDNA, cisplatin 1,2-d(GpG) intrastrand cross-link at N7 of G13 and G14 of strand 1) DNA 1: CCTCTCCTCTCTGGATCTTCTCTCC DNA 2: GGAGAGAAGATCCAGAGAGGAGAGG	8.95
